The reported measurements were obtained from PubChem BioAssay AID1259407.

# Test system: CCRIS mutagenicity, Ames/micronucleus/aberration tests
# protocol.text: CCRIS mutagenicity studies
# condition.summary: Test System: AMES SALMONELLA TYPHIMURIUM; Strain/Indicator: TA102; Metabolic Activation: RAT, LIVER, S-9, PHENOBARBITAL AND 5,6-BENZOFLAVONE; Method: PREINCUBATION
Calls of active or inactive are those of the source. No rule for the calls is given here.
// one of 1 = active, 0 = inactive, no free text

Prompt: Status in this test for O=C1C(Cl)=C(Cl)C(=O)c2ccccc21 ?
Completion: 1

Prompt: Status in this test for O=C1C=C(O)c2ccccc2C1=O ?
Completion: 0

Prompt: Status in this test for O=C(O)/C=C\C(=O)O ?
Completion: 0

Prompt: Status in this test for O=C1C=CC(=O)C(Cl)=C1 ?
Completion: 0

Prompt: Status in this test for CC1=CC(=O)C=CC1=O ?
Completion: 0

Prompt: Status in this test for O=C1C=CC(=O)c2c(O)ccc(O)c21 ?
Completion: 1

Prompt: Status in this test for O=C1C=Cc2ccccc2C1=O ?
Completion: 0

---

# Tested on: CCRIS mutagenicity, Ames/micronucleus/aberration tests
# protocol.text: CCRIS mutagenicity studies
# condition.summary: Test System: AMES SALMONELLA TYPHIMURIUM; Strain/Indicator: TA100; Metabolic Activation: S-9; Method: STANDARD PLATE
Active and inactive are the calls of the source. The rule behind the calls is not given here.
// one of active, inactive, no free text

The following molecules have reported results that may help.
In [3]: df
Out[3]:
                                   molecule                              assay_system     group
0  CCCCCCCCCC(=O)N=c1sn(C(=O)CCCCCCCCC)c2ccc([N+](=O)[O-])cc12  CCRIS mutagenicity, Ames/micronucleus/aberration tests    active
1  CC(C)C(=O)N=c1sn(C(=O)C(C)C)c2ccc([N+](=O)[O-])cc12  CCRIS mutagenicity, Ames/micronucleus/aberration tests    active
2  Cc1cc(O)c(C(C)(C)C)cc1Sc1cc(C(C)(C)C)c(O)cc1C  CCRIS mutagenicity, Ames/micronucleus/aberration tests  inactive

Prompt: Status in this test for CCCCCCCC(=O)N=c1sn(C(=O)CCCCCCC)c2ccc([N+](=O)[O-])cc12 ?
Completion: active

Prompt: Status in this test for O=[N+]([O-])c1ccc2nscc2c1 ?
Completion: active

Prompt: Status in this test for CCCC(=O)N=c1sn(C(=O)CCC)c2ccc([N+](=O)[O-])cc12 ?
Completion: active

Prompt: Status in this test for CN(C)P(=O)(N(C)C)N(C)C ?
Completion: inactive

---

# System: CCRIS mutagenicity, Ames/micronucleus/aberration tests
# protocol.text: CCRIS mutagenicity studies
# condition.summary: Test System: AMES SALMONELLA TYPHIMURIUM; Strain/Indicator: TA97; Metabolic Activation: NONE; Method: STANDARD PLATE
Calls of active or inactive are those of the source. How the calls were made is not given here.
// one of active, inactive, no free text

The following compounds have reported results that may help.
compound.structure.string	group
Cn1c2ccccc2c2nn[n+]([O-])c(C(=O)OCCCl)c21	active
C=O	active
CC[C@@]1(O)C[C@H](O[C@H]2C[C@H](N(C)C)[C@H](O[C@H]3C[C@H](O)[C@H](O[C@H]4C[C@H](O)[C@H](O)[C@H](C)O4)[C@H](C)O3)[C@H](C)O2)c2c(cc3c(c2O)C(=O)c2c(O)ccc(O)c2C3=O)[C@H]1C(=O)OC	inactive

Now look at this entry.
Prompt: Status in this test for O=C1O[C@H]([C@@H](O)CO)C(O)=C1O ?
Completion: inactive

---

# Test system: CCRIS mutagenicity, Ames/micronucleus/aberration tests
# protocol.text: CCRIS mutagenicity studies
# condition.summary: Test System: AMES SALMONELLA TYPHIMURIUM; Strain/Indicator: TA100; Metabolic Activation: RAT, LIVER, S-9, AROCLOR 1254; Method: SPOT TEST
Activity calls are given as the source filed them. No rule for the calls is given here.
// one of active, inactive, no free text

In [3]: df
Out[3]:
   compound_structure_string                              assay_system     group
0               CSCNc1ccccc1  CCRIS mutagenicity, Ames/micronucleus/aberration tests    active
1             COc1ccccc1NCSC  CCRIS mutagenicity, Ames/micronucleus/aberration tests    active
2  COc1c2occc2cc2ccc(=O)oc12  CCRIS mutagenicity, Ames/micronucleus/aberration tests  inactive

Now look at this entry.
Prompt: Status in this test for C=C(C#N)C(=O)OC ?
Completion: active

---

# System: CCRIS mutagenicity, Ames/micronucleus/aberration tests
# protocol.text: CCRIS mutagenicity studies
# condition.summary: Test System: AMES SALMONELLA TYPHIMURIUM; Strain/Indicator: TA2637; Metabolic Activation: NONE; Method: PREINCUBATION
# Source text: The CCRIS database contains chemical records with carcinogenicity, mutagenicity, tumor promotion, and tumor inhibition test results. It was developed by the National Cancer Institute (NCI). Data are derived from studies cited in primary journals, current awareness tools, NCI reports, and other sources. Test results have been reviewed by experts in carcinogenesis and mutagenesis. CCRIS provides historical information from the years 1985 - 2011. It is no longer updated. […]
The source made the active and inactive calls. The rule behind the calls is not given here.
// one of active, inactive, no free text

The following compounds have reported results that may help.
>>> df
       compound_structure_string     group
0         O=C1C=C(O)c2ccccc2C1=O  inactive
1  O=C1C(Cl)=C(Cl)C(=O)c2ccccc21  inactive
2            O=C1C=Cc2ccccc2C1=O    active
3           O=C1C=CC(=O)C(Cl)=C1  inactive
4              CC1=CC(=O)C=CC1=O  inactive

Now look at this entry.
Prompt: Status in this test for O=C1C=CC(=O)c2c(O)ccc(O)c21 ?
Completion: active

---

# System: CCRIS mutagenicity, Ames/micronucleus/aberration tests
# protocol.text: CCRIS mutagenicity studies
# condition.summary: Test System: AMES SALMONELLA TYPHIMURIUM; Strain/Indicator: TA1535; Metabolic Activation: RAT, LIVER, S-9, AROCLOR 1254; Method: STANDARD PLATE
Active and inactive are the calls of the source. The rule behind the calls is not given here.
// one of active, inactive, no free text

The following molecules have reported results that may help.
   compound_structure_string                              assay_system     group
0                        C=O  CCRIS mutagenicity, Ames/micronucleus/aberration tests  inactive
1   CC(=O)C1(c2ccccc2)CCNCC1  CCRIS mutagenicity, Ames/micronucleus/aberration tests  inactive
2     Cc1cc(S(=O)(=O)O)ccc1N  CCRIS mutagenicity, Ames/micronucleus/aberration tests  inactive

Prompt: Status in this test for O=C/C=C/c1ccccc1 ?
Completion: inactive

Prompt: Status in this test for CCCCOC(=O)CC(CC(=O)OCCCC)(OC(C)=O)C(=O)OCCCC ?
Completion: inactive

Prompt: Status in this test for CCC[C@]1(O)CC[C@H]2[C@@H]3CC[C@H]4CC(=O)C[C@H](C)[C@]4(C)[C@H]3CC[C@@]21C ?
Completion: inactive

Prompt: Status in this test for CC(=O)N1CCC[C@H]1C(=O)N(CC(=O)O)N=O ?
Completion: active

Prompt: Status in this test for O=C(NC(=O)c1c(F)cccc1F)Nc1cc(Cl)c(Oc2ncc(C(F)(F)F)cc2Cl)c(Cl)c1 ?
Completion: inactive

Prompt: Status in this test for O=C(O)c1cc(O)c2c(c1)C(=O)c1cccc(O)c1C2=O ?
Completion: inactive

Prompt: Status in this test for Oc1cccc2cccnc12 ?
Completion: active

Prompt: Status in this test for C=CC(=C)CCC=C(C)C ?
Completion: inactive

Prompt: Status in this test for CN1CCN(C2=Nc3ccccc3Oc3ccc(Cl)cc32)CC1 ?
Completion: inactive

Prompt: Status in this test for Clc1cc(Cl)nc(Cl)n1 ?
Completion: inactive

Prompt: Status in this test for Nc1ccccc1 ?
Completion: inactive

---

# Tested on: CCRIS mutagenicity, Ames/micronucleus/aberration tests
# protocol.text: CCRIS mutagenicity studies
# condition.summary: Test System: AMES SALMONELLA TYPHIMURIUM; Strain/Indicator: TA98; Metabolic Activation: RAT, LIVER, S-9, AROCLOR 1254 (10%); Method: PREINCUBATION
Calls of active or inactive are those of the source. No rule for the calls is given here.
// one of active, inactive, no free text

The following compounds have reported results that may help.
>>> df
                                   compound     group
0                                       B#B  inactive
1  O.O.O.O.O.O.O=[N+]([O-])[O-].O=[N+]([O-])[O-].O=[N+]([O-])[O-].[La+3]  inactive
2                                 CCCCOCCCC  inactive
3          COc1ccc(C(=O)/C(Br)=C\C(=O)O)cc1    active

Prompt: Status in this test for ClC(Br)Br ?
Completion: inactive

Prompt: Status in this test for C=C(C#N)C(=O)OC ?
Completion: inactive

Prompt: Status in this test for CC(O)CCl (stereo not drawn) ?
Completion: inactive

Prompt: Status in this test for CCCCN ?
Completion: inactive
